system-tested: T1, Dimeric monkey CD48-mFc (monkey)
T1 construct: Soluble monkey CD48 with a C-terminal Fc fusion [mFc]; the whole entry is the construct
T1 chain: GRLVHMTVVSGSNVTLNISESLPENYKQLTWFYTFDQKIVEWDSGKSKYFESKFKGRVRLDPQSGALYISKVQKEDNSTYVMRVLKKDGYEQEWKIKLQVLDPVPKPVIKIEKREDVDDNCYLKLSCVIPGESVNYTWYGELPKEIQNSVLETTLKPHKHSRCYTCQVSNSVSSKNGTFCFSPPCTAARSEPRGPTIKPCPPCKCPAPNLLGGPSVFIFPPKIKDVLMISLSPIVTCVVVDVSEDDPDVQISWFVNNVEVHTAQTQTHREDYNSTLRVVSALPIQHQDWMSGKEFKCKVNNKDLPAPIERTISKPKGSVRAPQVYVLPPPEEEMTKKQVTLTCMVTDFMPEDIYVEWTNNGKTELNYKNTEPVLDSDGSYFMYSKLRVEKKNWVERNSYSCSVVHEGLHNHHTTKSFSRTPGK
procedure-details: SPR (Biacore), antibody captured by anti-Fc, CD48 in solution, 25 C
property: kon (M⁻¹ s⁻¹)
Could you give me the number in M⁻¹ s⁻¹? Just the number is fine.

Look at this binder and give its reported kon. H4H1763N (antibody, V domains shown, Human IgG4 Fc (H4H)) VH: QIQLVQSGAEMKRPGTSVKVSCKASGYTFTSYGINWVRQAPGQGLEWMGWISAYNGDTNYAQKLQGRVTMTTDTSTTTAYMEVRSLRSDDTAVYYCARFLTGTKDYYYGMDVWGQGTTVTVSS VL: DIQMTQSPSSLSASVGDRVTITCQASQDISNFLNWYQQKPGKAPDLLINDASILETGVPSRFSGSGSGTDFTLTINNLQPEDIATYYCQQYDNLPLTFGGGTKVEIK
1.33e+06

Look at this binder and give its reported kon. H4H1779P (antibody, human IgG4, V domains shown, Human IgG4 Fc (H4H)) VH: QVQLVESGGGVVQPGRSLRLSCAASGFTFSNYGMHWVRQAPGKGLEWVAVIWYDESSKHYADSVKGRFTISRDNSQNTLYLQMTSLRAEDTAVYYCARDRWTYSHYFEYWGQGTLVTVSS VL: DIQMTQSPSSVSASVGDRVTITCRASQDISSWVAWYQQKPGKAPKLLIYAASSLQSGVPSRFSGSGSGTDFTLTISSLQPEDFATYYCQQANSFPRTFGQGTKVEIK
522000

Look at this binder and give its reported kon. H4H1771P (antibody, human IgG4, V domains shown, Human IgG4 Fc (H4H)) VH: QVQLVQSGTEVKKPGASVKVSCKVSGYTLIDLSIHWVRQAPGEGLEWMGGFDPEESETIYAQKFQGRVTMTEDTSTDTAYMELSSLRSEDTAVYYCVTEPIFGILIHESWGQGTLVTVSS VL: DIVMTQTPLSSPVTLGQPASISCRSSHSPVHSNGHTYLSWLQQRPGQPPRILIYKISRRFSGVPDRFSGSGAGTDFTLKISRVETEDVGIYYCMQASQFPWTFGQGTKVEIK
939000
